# Tested on: WiDr (colon)
# assayDetails: Antiproliferative activity, WiDr
# Type: cell-based, human
# settings: Homo sapiens
The label is Yes for GI50 below 8 µM and No for GI50 equal to or exceeding 8 µM.

Consider `O=[N+]([O-])c1cccc(C=NNc2nc(-c3ccccc3)c[se]2)c1` . Does its GI50 lie strictly below 8 µM? No

Lab log: compare recorded GI50 with 8 µM; is it strictly lower for `O=[N+]([O-])c1ccccc1C=NNc1nc(-c2ccccc2)c[se]1` ? Yes

API: query returns whether the compound falls strictly under 8 µM in GI50. Query: `COc1ccc(-c2c[se]c(NN=Cc3ccc([N+](=O)[O-])cc3)n2)cc1` No

Take the compound `COc1ccc(-c2c[se]c(NN=Cc3ccccc3)n2)cc1` and say whether its GI50 is less than 8 µM. No

Is 8 µM strictly greater than the compound's reported GI50? compound: `Cc1ccc(-c2c[se]c(NN=Cc3ccc([N+](=O)[O-])cc3)n2)cc1` No

I wonder whether `C(=NNc1nc(-c2ccccc2)c[se]1)c1ccccc1` has GI50 below 8 µM. Can you tell? Yes

Bench note: check whether O=c1[nH]cc(F)c(=O)[nH]1 [5-fluorouracil, reference compound] shows GI50 below 8 µM No

Does this compound meet the criterion GI50 < 8 µM? `COc1ccc(-c2c[se]c(NN=Cc3cccc([N+](=O)[O-])c3)n2)cc1` No

----------
outcomeMeasure: melting point

Note melting point for the compound shown: C(=NNc1nc(-c2ccccc2)c[se]1)c1ccccc1 [Compound 1] 178 to 180 °C

# return recorded melting point for entry COc1ccc(-c2c[se]c(NN=Cc3cccc([N+](=O)[O-])c3)n2)cc1 [Compound 3-OMe] 201 to 203 °C

Respond only with melting point recorded for Cc1ccc(-c2c[se]c(NN=Cc3cccc([N+](=O)[O-])c3)n2)cc1 [Compound 3-Me] 203 to 206 °C

Annotate the compound O=[N+]([O-])c1cccc(C=NNc2nc(-c3ccccc3)c[se]2)c1 [Compound 3] with its measured melting point. 216 to 218 °C

Determine its reported melting point: O=[N+]([O-])c1ccccc1C=NNc1nc(-c2ccccc2)c[se]1 [Compound 2] 183 to 184 °C

Give recorded melting point. COc1ccc(-c2c[se]c(NN=Cc3ccc([N+](=O)[O-])cc3)n2)cc1 [Compound 4-OMe] 208 to 211 °C

Read off the recorded melting point for COc1ccc(-c2c[se]c(NN=Cc3ccccc3)n2)cc1 [Compound 1-OMe] 180 to 182 °C

Please give measured melting point of the following entry: Cc1ccc(-c2c[se]c(NN=Cc3ccc([N+](=O)[O-])cc3)n2)cc1 [Compound 4-Me] 228 to 230 °C

Using the record for Cc1ccc(-c2c[se]c(NN=Cc3ccccc3[N+](=O)[O-])n2)cc1 [Compound 2-Me] , state its measured melting point. 170 to 171 °C

Supply measured melting point of Cc1ccc(-c2c[se]c(NN=Cc3ccccc3)n2)cc1 [Compound 1-Me] in your reply. 174 to 176 °C

Could you please provide reported melting point for COc1ccc(-c2c[se]c(NN=Cc3ccccc3[N+](=O)[O-])n2)cc1 [Compound 2-OMe] ? Thanks! 165 to 166 °C

----------
# Tested on: A549 (non-small cell lung)
# assayDetails: Antiproliferative activity, A549
# Assay type: cell-based, human
# settings: Homo sapiens
Would you kindly list log10(GI50) for each of these compounds?
Scale type: logarithmic (base 10). Underlying GI50 unit: µM.

Fill in log10(GI50) for record `Cc1ccc(-c2c[se]c(NN=Cc3ccccc3[N+](=O)[O-])n2)cc1` 0.94

Read the entry `O=[N+]([O-])c1cccc(C=NNc2nc(-c3ccccc3)c[se]2)c1` and write its reported log10(GI50). 0.79

Supply recorded log10(GI50) for `C(=NNc1nc(-c2ccccc2)c[se]1)c1ccccc1` here. 1.45

State its log10(GI50): `COc1ccc(-c2c[se]c(NN=Cc3cccc([N+](=O)[O-])c3)n2)cc1` 1.72

Find the measured log10(GI50) of `Cc1ccc(-c2c[se]c(NN=Cc3cccc([N+](=O)[O-])c3)n2)cc1` and report it. 1.64

Assign log10(GI50) to the following record: `O=[N+]([O-])c1ccc(C=NNc2nc(-c3ccccc3)c[se]2)cc1` 1.20

Hello, please tell me recorded log10(GI50) for this one: `O=[N+]([O-])c1ccccc1C=NNc1nc(-c2ccccc2)c[se]1` 0.69

Origin of values: paper PMC6037691
